Test system: MIA (pancreatic cancer) cell genome
procedure_details: ctDNA coculture with MIA cells, whole genome sequencing: genomic insertion sites, transposons at insertion points and SNVs (pancreatic cancer)
Assay type: cell-based, human
condition_details: TABLE 4; identified genomic insertion site, chromosome

molecule	Location
26 (nucleic acid, listed as Homo sapiens) AATTACAACAACCCTTAATATTTGTAAAGCGCTTGATAATTCAGGGAGGGCTTTTAAAAACTTCTATCCATCTCTTCCCCCCAGCAATCCTATGAGGTAGGCAGGGCTGGAATCATTTGCTGCATTTTATCGAATAGGAAGCCATGACTCGTAGAGGTCTGGTGACTTAACTGAGGTCACCCACTGAGGACGTGGCAGAGCTGGGTCCTGAATCTGTGGCCCTCAGGCTCTTTGCCTGGCCCTGCCTCACATAGACTACGCTGCCTCT	Chr16

Cited source for all entries: patent US20250241939A1
